// data source = the supplement of paper PMC10567573

B1: FAM107A (parent)
chain: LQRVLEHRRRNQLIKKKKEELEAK

Variants of: B1
assay details: protein stability index of a GFP-peptide fusion (GPS, HEK-293T) (PSI 1-6); higher = more stable;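 also: lentivirally expressed fusions sorted by FACS into six bins by GFP to DsRed ratio, PSI derived from sequencing read proportions per bin multiplied by bin number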
experimental parameters: c terminus: a fixed tail appended
readout label: protein stability index

sequence content | protein stability index
LQRVLEHRRRNQLIKKKKEELEAG [K24G] | 3.63
LQRVLEHRRRNQLIKKKKEELEAY [K24Y] | 2.62

Query block: # lookup: protein stability index of LQRVLEHRRCNQLIKKKKEELEAK [R10C]
Result block: 3.14

Query block: Note, next up: LCRVLEHRRRNQLIKKKKEELEAK [Q2C]
Result block: 2.98

Query block: Note, next up: LQRVLEHHRRNQLIKKKKEELEAK [R8H]
Result block: 2.89

Query block: Note, next up: LQRVLEHRRRNQMIKKKKEELEAK [L13M]
Result block: 3.83

Query block: Note, next up: LQRVLEHRRRNQFIKKKKEELEAK [L13F]
Result block: 3.83

Query block: Note, next up: LQRVLEHRRRNQLILKKKEELEAK [K15L]
Result block: 3.84

Query block: Note, next up: LQRVLEHRRRNQLIIKKKEELEAK [K15I]
Result block: 3.24

Query block: Note, next up: LQRVLEHRRRNQLIKKLKEELEAK [K17L]
Result block: 3.5

Query block: Note, next up: LQRVLEHRRRNQLIKKKAEELEAK [K18A]
Result block: 4.54
